test system: Guinea-pig PRP (platelet aggregation); test: (A) In vitro antiplatelet aggregation effect in guinea pigs (PRP), Table IV-1; assay type: cell-based, guinea pig (Hartley male); details: Cavia porcellus, aggregating agent collagen 1 to 2 μg/ml, PRP 300,000/mm^3, 37° C., read-out: Guinea-pig PRP IC50, Collagen
pIC50: −log10 of the molar value. Counter-ions that a name gives are not always drawn.
quantity: pIC50

{"columns": ["compound", "quantity", "meas value"],
 "data": [
  ["Cn1c(-c2ccc(C(C)(C)C)cc2)c(C(=O)NC2CCN(CC(=O)O)CC2)c(=O)n1-c1ccc(C(=N)N)cc1 [compound 109]", "pIC50", 5.40],
  ["CCOC(=O)COCCNC(=O)c1c(-c2ccc(-c3ccccc3)cc2)n(C)n(-c2ccc(C(=N)N)cc2)c1=O [compound 20]", "pIC50", 4.92],
  ["Cn1c(-c2ccc(-c3ccccc3)cc2)c(C(=O)NC2CCN(CC(=O)O)CC2)c(=O)n1-c1ccc(C(=N)N)cc1 [compound 125]", "pIC50", 5.38],
  ["CN(CC(=O)O)C1CCN(C(=O)c2c(-c3ccc(C(C)(C)C)cc3)n(C)n(-c3ccc(C(=N)N)cc3)c2=O)CC1 [compound 115]", "pIC50", 4.17],
  ["CCOC(=O)CN(C=O)C1CCN(C(=O)c2c(-c3ccc(C(C)(C)C)cc3)n(C)n(-c3ccc(C(=N)N)cc3)c2=O)CC1 [compound 114]", "pIC50", 4.85],
  ["CCOC(=O)COCCNC(=O)c1c(-c2ccc(C(C)(C)C)cc2)n(C)n(-c2ccc(C(=N)N)cc2)c1=O [compound 25]", "pIC50", 4.70],
  ["CCOC(=O)COC1CCN(C(=O)c2c(-c3ccc(-c4ccccc4)cc3)n(C)n(-c3ccc(C(=N)N)cc3)c2=O)CC1 [compound 23]", "pIC50", 5.03],
  ["CCOC(=O)CN1CCC(NC(=O)c2c(-c3ccc(C(C)(C)C)cc3)n(C)n(-c3ccc(C(=N)N)cc3)c2=O)CC1 [compound 110]", "pIC50", 5.51],
  ["CCOC(=O)CN1CCC(NC(=O)c2c(-c3ccc(-c4ccccc4)cc3)n(C)n(-c3ccc(C(=N)N)cc3)c2=O)CC1 [compound 126]", "pIC50", 5.12],
  ["Cn1cc(C(=O)N2CCC(OCC(=O)O)CC2)c(=O)n1-c1ccc(C(=N)N)cc1 [Compound No. 10]", "pIC50", 4.77],
  ["CCOC(=O)COC1CCN(C(=O)c2c(-c3ccc(-c4ccc(Cl)cc4)cc3)n(C)n(-c3ccc(C(=N)N)cc3)c2=O)CC1 [Compound No. 2]", "pIC50", 5.41],
  ["CCOC(=O)COC1CCN(C(=O)c2cn(C)n(-c3ccc(C(=N)N)cc3)c2=O)CC1 [Compound No. 11]", "pIC50", 4.77],
  ["Cn1c(-c2ccc(C(C)(C)C)cc2)c(C(=O)NCCOCC(=O)O)c(=O)n1-c1ccc(C(=N)N)cc1 [compound 24]", "pIC50", 4.72],
  ["CCOC(=O)COCCN(C)C(=O)c1c(-c2ccccc2)n(C)n(-c2ccc(C(=N)N)cc2)c1=O [compound 15]", "pIC50", 4.24],
  ["Cn1c(-c2ccccc2)c(C(=O)N2CCC(OCC(=O)O)CC2)c(=O)n1-c1ccc(C(=N)N)cc1 [compound 17]", "pIC50", 4.64],
  ["CCOC(=O)CN1CCC(N(C)C(=O)c2c(-c3ccc(C(C)(C)C)cc3)n(C)n(-c3ccc(C(=N)N)cc3)c2=O)CC1 [compound 112]", "pIC50", 4.85],
  ["Cn1c(-c2ccc(C(C)(C)C)cc2)c(C(=O)N2CCC(OCC(=O)O)CC2)c(=O)n1-c1ccc(C(=N)N)cc1 [Compound No. 28, hydrochloride]", "pIC50", 4.77],
  ["CCCCc1ccc(-c2c(C(=O)N3CCC(OCC(=O)OCC)CC3)c(=O)n(-c3ccc(C(=N)N)cc3)n2C)cc1 [compound 128]", "pIC50", 5.15],
  ["CN(C(=O)c1c(-c2ccc(C(C)(C)C)cc2)n(C)n(-c2ccc(C(=N)N)cc2)c1=O)C1CCN(CC(=O)O)CC1 [compound 111]", "pIC50", 5.09],
  ["CCOC(=O)CN(C)C1CCN(C(=O)c2c(-c3ccc(C(C)(C)C)cc3)n(C)n(-c3ccc(C(=N)N)cc3)c2=O)CC1 [compound 116]", "pIC50", 4.05]
]}

Entry source: patent US5968967A
